study target: γ-secretase (human; HeLa cell membrane / solubilized HeLa membrane; endogenous in HEK293 cells) (human, UniProt P49768 1-467; Q92542 34-709; Q9NZ42 1-101; Q96BI3 1-265)
property: IC50
# include the unit after the value

                                     binder   result
0  LVFFAEN [Aβ17-23 heptapeptide with the Iowa mutation (D23N)]  2940 nM
1  LVFFAGD [Aβ17-23 heptapeptide with the Arctic mutation (E22G)]  3890 nM
2  LVFFAKD [Aβ17-23 heptapeptide with the Italian mutation (E22K)]  2130 nM

Value sought for every listed binder: IC50.
1. LVFFAQD [Aβ17-23 heptapeptide with the Dutch mutation (E22Q)]
2. LVFFGED [Aβ17-23 heptapeptide with the Flemish mutation (A21G)]

1. 2120 nM
2. 5270 nM
